Test system: MDA-MB-435 melanoma
TEST DETAILS: NCI-60 one-dose screen, 48 h
SETTINGS: 10 µM unless noted
The panel holds about 83,000 compounds, 20% with a hit somewhere; the sample as a whole holds those more often. Active and inactive are the calls of the source. Rule for the calls: active = growth percent below 10; inactive = the rest.
Tick one outcome: true (1) for active, false (0) for inactive

Please share the test call associated with "COc1ccc(CNC(=O)c2c(C)n([O-])c3ccc(OC)cc3[n+]2=O)cc1" .
false (0)

// same read-out, input: "Cc1cc2c(cc1C)[n+](Cc1ccc3ccccc3n1)cn2Cc1ccc2ccccc2n1"
true (1)

Another compound to check: "CCc1ccc(-c2nc(SCC(=O)NC3CCCCC3)n[nH]2)cc1"
false (0)

# iterate: "Cn1cc(NC(=O)Nc2cc(C(=O)O)n(C)c2)cc1C(=O)O"
false (0)

Now try "Cc1cc(Cl)ccc1Nc1nc(C(F)(F)F)ccc1C(=O)N/N=C/c1ccc(Cl)cc1" .
false (0)

Try the compound "CC(=O)c1nn(-c2ccccc2)c(=Nc2ccccc2)cc1C"
false (0)

Repeat for the following compound: "O=C(O)c1ccc2cccnc2c1O"
false (0)

Likewise for "c1ccc2nc(Cn3c[n+](Cc4ccc5ccccc5n4)c4ccccc43)ccc2c1" ?
true (1)

Also check CC(=O)OC1Oc2cc(C)c(C)cc2-c2oc(=O)c(-c3ccccc3)cc21 (stereo unspecified)
true (1)

Same question for "O=C(O)CNC(=O)C1(N2C(=O)c3ccccc3C2=O)CCCC1" please.
false (0)

Do the same for "O=C(CSc1ncc(-c2ccccc2)n1-c1ccccc1)Nc1ccc(-c2nc3ccccc3s2)cc1" please
false (0)
